Below is a list of entries, each paired with its recorded melting point value.
attribute measured: melting point

INSERT INTO results (molecule, attribute_measured, result) VALUES
  ('CN(C)c1ccc(C(=O)O)cc1[N+](=O)[O-]', 'melting point', '198 to 200 °C'),
  ('Nc1cccc(NC(=O)c2cccnc2)c1', 'melting point', '155 to 157 °C'),
  ('Cc1cc(N)ccc1C(=O)O', 'melting point', '154 to 156 °C'),
  ('Cc1cc(C(=O)O)nn1-c1ccc(F)cc1F', 'melting point', '221 to 223 °C'),
  ('Clc1nc(CSc2ccccc2)nc2sc3c(c12)CCCC3', 'melting point', '55 to 57 °C'),
  ('O=C(Cc1nc2ccccc2s1)Nc1ccc(Cl)cc1', 'melting point', '164 to 166 °C'),
  ('NS(=O)(=O)c1cccc(-n2cnnn2)c1', 'melting point', '181 to 183 °C'),
  ('Cc1nc(C(=O)O)nn1-c1ccccc1C(C)C', 'melting point', '175 to 177 °C'),
  ('O=C(O)Cc1ccc(S(=O)(=O)N2CCOCC2)s1', 'melting point', '116 to 118 °C'),
  ('CC(C)(C)OC(=O)Nc1cc2c(cc1N)OCO2', 'melting point', '93 to 95 °C'),
  ('ClCc1ncc(-c2ccccc2Br)o1', 'melting point', '85 to 87 °C'),
  ('Cc1cc(C)c(N=C=S)c(Cl)c1', 'melting point', '55 to 57 °C'),
  ('O=C(O)c1cc(NS(=O)(=O)c2ccc(Cl)c([N+](=O)[O-])c2)ccc1O', 'melting point', '239 to 241 °C'),
  ('Cn1ccc2cc[nH]c(=O)c21', 'melting point', '190 to 192 °C'),
  ('CC(C)C(O)c1nccn1C (configuration not stated)', 'melting point', '80 to 82 °C'),
  ('O=[N+]([O-])c1ccc(-c2cn3ccsc3n2)cc1', 'melting point', '284 to 286 °C'),
  ('Cc1cccc(NC(=O)CN2CCNCC2)c1C', 'melting point', '55 to 57 °C'),
  ('N#CCCN(C(=O)CCl)c1ccc(F)cc1', 'melting point', '85 to 87 °C'),
  ('CN1CCN(C(=O)CO)CC1', 'melting point', '56 to 58 °C'),
  ('O=c1[nH]c2cc(Cl)ccc2c(=O)o1', 'melting point', '250 to 252 °C'),
  ('Nc1cc2c(cc1C(=O)O)OCCO2', 'melting point', '189 to 191 °C'),
  ('CCN(c1ccccc1)S(=O)(=O)c1cccc(C(=O)O)c1', 'melting point', '175 to 177 °C'),
  ('O=C(O)CCSc1ccc2c(c1)OCCCO2', 'melting point', '63 to 65 °C'),
  ('O=C(O)Cc1ccc(S(=O)(=O)CCO)cc1', 'melting point', '99 to 101 °C'),
  ('O=C1c2ccccc2N2C(=O)CCC2(C(=O)O)N1Cc1ccccc1 (configuration not stated)', 'melting point', '134 to 136 °C'),
  ('Cc1ccc(C)n1-c1ccc(CN)cc1', 'melting point', '61 to 63 °C'),
  ('Cc1noc(C)c1CNC(=O)CCl', 'melting point', '79 to 81 °C');

# credit: a melting point compilation (Tetko et al.)
